Biological target: T1, natriuretic peptide receptor-B (human)
T1 chain: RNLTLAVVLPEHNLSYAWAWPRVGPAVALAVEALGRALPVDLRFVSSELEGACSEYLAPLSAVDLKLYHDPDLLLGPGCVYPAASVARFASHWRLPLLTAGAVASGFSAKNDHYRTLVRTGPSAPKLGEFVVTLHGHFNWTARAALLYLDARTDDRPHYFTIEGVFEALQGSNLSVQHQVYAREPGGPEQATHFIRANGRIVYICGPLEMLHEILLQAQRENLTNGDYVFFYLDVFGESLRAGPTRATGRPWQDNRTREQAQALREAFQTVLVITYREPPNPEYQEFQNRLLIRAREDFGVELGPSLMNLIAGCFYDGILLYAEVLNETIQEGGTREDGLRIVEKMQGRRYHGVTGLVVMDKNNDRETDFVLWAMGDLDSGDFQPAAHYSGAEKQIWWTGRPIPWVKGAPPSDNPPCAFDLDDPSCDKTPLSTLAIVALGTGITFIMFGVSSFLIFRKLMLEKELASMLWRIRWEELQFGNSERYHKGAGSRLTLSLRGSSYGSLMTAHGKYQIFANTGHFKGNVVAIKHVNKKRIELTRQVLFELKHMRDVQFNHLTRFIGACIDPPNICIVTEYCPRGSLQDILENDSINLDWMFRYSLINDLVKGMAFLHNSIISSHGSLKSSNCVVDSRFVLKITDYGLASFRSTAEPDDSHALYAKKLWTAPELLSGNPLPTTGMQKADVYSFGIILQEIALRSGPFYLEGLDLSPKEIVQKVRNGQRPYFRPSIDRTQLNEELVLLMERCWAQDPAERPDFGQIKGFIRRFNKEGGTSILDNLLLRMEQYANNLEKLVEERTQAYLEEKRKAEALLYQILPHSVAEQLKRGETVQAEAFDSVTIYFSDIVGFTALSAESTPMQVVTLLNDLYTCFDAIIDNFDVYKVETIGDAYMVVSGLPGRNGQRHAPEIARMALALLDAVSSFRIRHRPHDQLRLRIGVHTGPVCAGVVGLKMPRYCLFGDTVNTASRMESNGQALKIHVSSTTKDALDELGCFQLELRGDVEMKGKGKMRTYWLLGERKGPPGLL
Assay: cell-based or functional assay
Numbered stars: 1 amine (or outer) side, 2 acyl side, 3 side chain; on linkers, the order of the positions; unused ones are H or OH. Square brackets hold non-standard residues; d marks the D form. Ends that are not written are not given here. * marks the point of attachment. Pro(trans-4-NH2) = O=C([C@@H]1C[C@@H](N[*:3])CN1[*:1])[*:2]; Sni = (S)-nipecotic acid, O=C([C@H]1CCCN([*:1])C1)[*:2]; Azetidine3carboxylic = O=C(C1CN([*:1])C1)[*:2]; Hyp = O=C(O)[C@@H]1C[C@@H](O)CN1; NMeL = CN[C@@H](CC(C)C)C(=O)O; AR‑201‑72 = not defined here; Nle = CCCC[C@H](N)C(=O)O; Octanoyl = CCCCCCCC(=O)*; Occ = octanoic acid
measurement kind: EC50 group, cGMP in GTM-3 cells

Sample records with EC50 group, cGMP in GTM-3 cells:
# binder, EC50 group, cGMP in GTM-3 cells
rows = [
    ("Octanoyl-[Sni]F[dL]L[Pro(trans-4-NH2)][NMeL]DRI-NH2 [JAL-1295]", "≤ 1 µM"),
    ("[AR‑201‑72]F[dR]L[Hyp][NMeL]DRI-NH2 (reading uncertain; also: printed as (AR-201-72)-Phe-arg-Leu-Hyp-Nml-Asp-Arg-Ile-NH2) [JAL-1377]", "≤ 15 µM"),
    ("[Occ]AFG[Nle]PLDRI-NH2 (not fully specified (residue 2); printed as Occ-ala-Phe-Gly-Nle-Pro-Leu-Asp-Arg-Ile-NH2) [JAL-0942]", "≤ 15 µM"),
]

Exercise: Which measured EC50 group, cGMP in GTM-3 cells value corresponds to Octanoyl-[dA]F[dF]L[Hyp]LDRI-NH2 [JAL-1028] ?
Solution: ≤ 5 µM

Exercise: Which measured EC50 group, cGMP in GTM-3 cells value corresponds to [Occ][Azetidine3carboxylic]FGLPLDRI-NH2 [JAL-0985] ?
Solution: ≤ 15 µM

Exercise: Which measured EC50 group, cGMP in GTM-3 cells value corresponds to XFRLXXDRI (HELM PEPTIDE1{[CCCCCCCCS(=O)(=O)CCC(=O)[*:2]].F.[dR].L.[Hyp].[meL].D.R.I.[am]}$$$$V2.0; N-terminus assumed; SMILES CCCCCCCCS(=O)(=O)CCC(=O)N[C@@H](Cc1ccccc1)C(=O)N[C@H](CCCNC(=N)N)C(=O)N[C@@H](CC(C)C)C(=O)N1C[C@H](O)C[C@H]1C(=O)N(C)[C@@H](CC(C)C)C(=O)N[C@@H](CC(=O)O)C(=O)N[C@@H](CCCNC(=N)N)C(=O)N[C@H](C(N)=O)[C@@H](C)CC) [JAL-1324] ?
Solution: ≤ 5 µM
